target: UniProt:P08581
pIC50: −log10 of the molar value.

sample-smiles: O=S(=O)(c1cccc2nonc12)n1ccc2ncc(-c3cnn(C4CCNCC4)c3)cc21
target-under-test: UniProt:P08581
pIC50: 8.05

###

molecular target: Hepatocyte growth factor receptor (Homo sapiens); assay: Inhibition of c-Met phosphorylation in human A549 cells after 1 hr; assay type: cell-based
Sequence (P08581 whole entry): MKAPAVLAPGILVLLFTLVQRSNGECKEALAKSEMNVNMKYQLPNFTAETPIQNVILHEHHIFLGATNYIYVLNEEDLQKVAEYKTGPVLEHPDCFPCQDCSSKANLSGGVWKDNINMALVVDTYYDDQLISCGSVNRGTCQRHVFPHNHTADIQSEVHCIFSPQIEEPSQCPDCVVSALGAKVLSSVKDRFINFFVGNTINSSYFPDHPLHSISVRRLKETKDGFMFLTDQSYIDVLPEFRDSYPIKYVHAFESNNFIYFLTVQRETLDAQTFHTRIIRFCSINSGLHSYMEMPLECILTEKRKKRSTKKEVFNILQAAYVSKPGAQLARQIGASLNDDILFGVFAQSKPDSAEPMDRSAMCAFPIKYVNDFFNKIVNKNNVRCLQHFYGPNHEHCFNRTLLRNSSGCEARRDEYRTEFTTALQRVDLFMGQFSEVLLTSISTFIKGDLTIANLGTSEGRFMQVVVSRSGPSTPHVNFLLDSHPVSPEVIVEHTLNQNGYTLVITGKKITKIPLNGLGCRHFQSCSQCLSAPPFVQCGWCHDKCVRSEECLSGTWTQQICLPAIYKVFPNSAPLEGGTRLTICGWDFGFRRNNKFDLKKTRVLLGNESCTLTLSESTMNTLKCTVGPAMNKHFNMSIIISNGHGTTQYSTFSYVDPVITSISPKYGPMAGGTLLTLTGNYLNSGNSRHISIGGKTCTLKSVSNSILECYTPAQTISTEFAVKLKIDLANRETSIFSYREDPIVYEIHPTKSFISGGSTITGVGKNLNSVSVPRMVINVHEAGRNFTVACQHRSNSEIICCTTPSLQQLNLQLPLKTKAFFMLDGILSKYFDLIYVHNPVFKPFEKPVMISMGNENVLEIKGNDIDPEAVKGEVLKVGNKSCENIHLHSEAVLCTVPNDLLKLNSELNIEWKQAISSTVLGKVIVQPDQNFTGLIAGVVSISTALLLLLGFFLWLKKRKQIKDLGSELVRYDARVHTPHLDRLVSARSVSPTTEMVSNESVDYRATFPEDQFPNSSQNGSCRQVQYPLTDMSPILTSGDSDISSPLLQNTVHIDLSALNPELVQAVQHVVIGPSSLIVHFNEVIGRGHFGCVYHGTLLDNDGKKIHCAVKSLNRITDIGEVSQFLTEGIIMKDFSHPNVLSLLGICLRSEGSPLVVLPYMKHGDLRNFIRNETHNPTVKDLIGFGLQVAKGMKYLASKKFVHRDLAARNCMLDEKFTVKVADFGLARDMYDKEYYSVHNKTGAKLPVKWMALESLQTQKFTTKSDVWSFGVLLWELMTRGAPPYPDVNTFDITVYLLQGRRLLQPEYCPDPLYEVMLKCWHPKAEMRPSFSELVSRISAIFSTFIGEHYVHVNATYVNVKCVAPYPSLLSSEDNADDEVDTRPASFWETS

sample-smiles: O=S(=O)(c1cccc2nonc12)n1ccc2ncc(-c3cnn(C4CCNCC4)c3)cc21
IC50: 130 nM

###

molecular target: UniProt:P08581; assay: Inhibition of c-Met phosphorylation in human MKN45 cells after 1 hr; format: cell-based, MKN-45

sample-smiles: O=S(=O)(c1cccc2nonc12)n1ccc2ncc(-c3cnn(C4CCNCC4)c3)cc21
IC50: 200 nM
